Hey, just so you know, these numbers are from patent EP1382597A2.

TESTED TARGET: human PR-B (Homo sapiens, UniProt P06401)
Construct: expressed in transfected cells; host or cells: CV-1 cells (African green monkey kidney fibroblasts), transient transfection
Sequence (P06401 whole entry): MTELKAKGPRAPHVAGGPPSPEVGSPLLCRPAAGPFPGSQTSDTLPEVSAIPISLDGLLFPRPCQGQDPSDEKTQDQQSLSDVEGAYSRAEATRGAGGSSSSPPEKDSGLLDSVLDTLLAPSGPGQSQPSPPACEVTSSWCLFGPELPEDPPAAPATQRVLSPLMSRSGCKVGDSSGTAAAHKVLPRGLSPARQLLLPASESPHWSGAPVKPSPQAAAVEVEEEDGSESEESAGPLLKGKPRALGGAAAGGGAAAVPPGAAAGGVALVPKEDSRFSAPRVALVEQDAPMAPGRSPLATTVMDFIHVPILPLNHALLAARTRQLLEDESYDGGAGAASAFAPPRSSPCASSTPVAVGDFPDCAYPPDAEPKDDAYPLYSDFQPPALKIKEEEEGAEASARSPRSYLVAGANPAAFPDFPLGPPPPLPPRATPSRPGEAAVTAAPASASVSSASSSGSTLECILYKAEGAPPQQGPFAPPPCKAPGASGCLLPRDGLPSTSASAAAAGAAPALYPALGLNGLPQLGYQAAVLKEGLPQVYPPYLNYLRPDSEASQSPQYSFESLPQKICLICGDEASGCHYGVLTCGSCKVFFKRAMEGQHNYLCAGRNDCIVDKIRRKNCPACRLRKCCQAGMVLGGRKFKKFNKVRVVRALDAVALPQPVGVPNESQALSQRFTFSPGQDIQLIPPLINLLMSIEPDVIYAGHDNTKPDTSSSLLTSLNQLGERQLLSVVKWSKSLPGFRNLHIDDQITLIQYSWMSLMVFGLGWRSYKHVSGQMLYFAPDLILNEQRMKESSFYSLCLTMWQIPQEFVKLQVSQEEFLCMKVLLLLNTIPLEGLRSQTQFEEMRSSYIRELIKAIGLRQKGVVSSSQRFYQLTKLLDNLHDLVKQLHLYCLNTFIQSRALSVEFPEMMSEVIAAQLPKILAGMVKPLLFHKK
ASSAY DETAILS: Co-transfection assay, PR agonist activity;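 also: CV-1 cells (African green monkey kidney) co-transfected with receptor plasmid and hormone-responsive firefly luciferase reporter, agonism read as compound-dependent rise in luciferase signal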
Assay type: cell-based
CONDITION PARAMETERS: CV-1, read-out: PR Agonist CV-1 Cells Efficacy (%)
The entries below are paired with their reported Emax.

MOLECULE	Emax
CC1=CC(C)(C)Nc2ccc(-c3cccc(C#N)c3)cc21	24%
CCCCC1Oc2ccccc2-c2ccc3c(c21)C(C)C(O)(CCCC)C(C)(C)N3 (racemic)	27%
CC1=CC(C)(C)Nc2ccc3c(c21)/C(=C/c1ccccc1C)Oc1ccc(F)cc1-3	231%
CC1=CC(C)(C)Nc2ccc(-c3cccc([N+](=O)[O-])c3)c(Cl)c21	< 20%
CC1(C)Nc2ccc3c(c2C(=O)C1(C)C)C(c1ccc(Cl)cc1)Oc1ccccc1-3 (racemic)	< 20%
C[C@H]1C(=O)C(C)(C)Nc2ccc3c(c21)O[C@H](c1ccccc1)c1ccccc1-3 (relative stereo)	< 20%
CC1=CC(C)(C)Nc2ccc3c(c21)/C(=C/c1ccccc1)Oc1ccccc1-3	147%
CC1=CC(C)(C)Nc2ccc(-c3cccc(Cl)c3Cl)cc21	< 20%
